Parameter: viability, T/C. Scope: all listed entries.
- Tested on: HUVEC/MSC spheroids viability
- methodDescription: Human HUVEC/MSC cell line growth inhibition [KRAS2];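 note: percent of DMSO vehicle control luminescence so 100% = untreated viability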
- conditionInfo: second compound 10 µM; first compound 3.16 µM; hits give low values
- Description: Multicellular complex tumor spheroid response to RAS pathway inhibitors in combination with a targeted agents in patient-derived cell lines with oncogenic KRAS variants from multiple cancer types A high-throughput screen of multi-cell type tumor spheroids was designed to identify active combinations of targeted small molecules and KRAS pathway inhibitors. […] Compounds. […] If the clinical Cmax for an agent had not been determined, the highest concentration tested was 10 microM. […]
Just the number please, in %, no unit attached.

>>> measuredresult("COC(=O)c1ccc2c(C(=Nc3ccc(N(C)C(=O)CN4CCN(C)CC4)cc3)c3ccccc3)c(O)[nH]c2c1 + C=CC(=O)N1CCN(c2nc(=O)n(-c3c(C)ccnc3C(C)C)c3nc(-c4c(O)cccc4F)c(F)cc23)C(C)C1")
39.4
>>> measuredresult("CC1OCC2(CCN(c3cnc(Sc4ccnc(N)c4Cl)c(N)n3)CC2)C1N (stereo not given) + C=CC(=O)N1CCN(c2nc(=O)n(-c3c(C)ccnc3C(C)C)c3nc(-c4c(O)cccc4F)c(F)cc23)C(C)C1")
95.5
>>> measuredresult("COC(=O)c1ccc2c(C(=Nc3ccc(N(C)C(=O)CN4CCN(C)CC4)cc3)c3ccccc3)c(O)[nH]c2c1 + CNCc1ccccc1-c1csc(C(C)Nc2nc(C)nc3cc(OC)c(OC)cc23)c1")
0.34

The reported viability, T/C value, HUVEC/MSC spheroids viability, for CCNC(=O)CC1N=C(c2ccc(Cl)cc2)c2cc(OC)ccc2-n2c(C)nnc21 (stereo not given) + CNCc1ccccc1-c1csc(C(C)Nc2nc(C)nc3cc(OC)c(OC)cc23)c1 reads 0.39

Reported HUVEC/MSC spheroids viability viability, T/C for item COc1cc2nccc(Oc3ccc(NC(=O)C4(C(=O)Nc5ccc(F)cc5)CC4)cc3)c2cc1OC + CNCc1ccccc1-c1csc(C(C)Nc2nc(C)nc3cc(OC)c(OC)cc23)c1 was 0.43
